biological target: rat EP4 receptor (Rattus norvegicus); construct: cells seeded on STEP plates; assay: SEAP activity assay on EP4 STEP plate; assay type: cell-based; conditions: SEAP luminescence, 6-8 hours of stimulation; read-out: STEP cell functional assay EC50 SEAP/EP4
Sequence (P43114 whole entry): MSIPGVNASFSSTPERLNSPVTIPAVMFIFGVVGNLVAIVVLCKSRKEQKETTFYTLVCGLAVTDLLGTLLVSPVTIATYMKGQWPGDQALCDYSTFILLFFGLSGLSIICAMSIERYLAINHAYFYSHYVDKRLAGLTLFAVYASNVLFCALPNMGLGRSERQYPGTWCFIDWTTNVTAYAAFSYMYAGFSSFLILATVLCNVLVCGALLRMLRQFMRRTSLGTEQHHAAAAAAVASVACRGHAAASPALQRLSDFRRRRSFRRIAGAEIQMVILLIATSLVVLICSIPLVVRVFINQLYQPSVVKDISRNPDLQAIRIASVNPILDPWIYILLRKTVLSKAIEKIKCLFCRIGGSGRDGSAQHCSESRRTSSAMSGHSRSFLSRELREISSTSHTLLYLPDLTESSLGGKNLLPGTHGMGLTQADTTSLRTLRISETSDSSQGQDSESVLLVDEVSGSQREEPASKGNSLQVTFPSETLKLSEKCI
# EC50 per entry
Quote the value and follow it with the unit of measurement.

For the compound CCC#CCC(C)[C@H](O)/C=C/[C@H]1CCC(=O)N1CC#Cc1ccc(C(=O)O)s1 (stereo partly shown) [Example 13C] , what EC50 is on record? 18.3 nM

Given CCCC#CCC(C)[C@@H](O)/C=C/[C@H]1CCC(=O)N1CCCCCCC(=O)O (mixture of isomers) , state its recorded EC50. 29 nM

Which value of EC50 has been reported for "CCC#C[C@H](O)/C=C/[C@H]1CCC(=O)N1CCCCCCC(=O)O" in the records? 4.73 nM
